Listed molecules paired with reported inhibition
Target: Prostaglandin G/H synthase 1 (Ovis aries) (UniProt P05979)
Sequence (whole entry): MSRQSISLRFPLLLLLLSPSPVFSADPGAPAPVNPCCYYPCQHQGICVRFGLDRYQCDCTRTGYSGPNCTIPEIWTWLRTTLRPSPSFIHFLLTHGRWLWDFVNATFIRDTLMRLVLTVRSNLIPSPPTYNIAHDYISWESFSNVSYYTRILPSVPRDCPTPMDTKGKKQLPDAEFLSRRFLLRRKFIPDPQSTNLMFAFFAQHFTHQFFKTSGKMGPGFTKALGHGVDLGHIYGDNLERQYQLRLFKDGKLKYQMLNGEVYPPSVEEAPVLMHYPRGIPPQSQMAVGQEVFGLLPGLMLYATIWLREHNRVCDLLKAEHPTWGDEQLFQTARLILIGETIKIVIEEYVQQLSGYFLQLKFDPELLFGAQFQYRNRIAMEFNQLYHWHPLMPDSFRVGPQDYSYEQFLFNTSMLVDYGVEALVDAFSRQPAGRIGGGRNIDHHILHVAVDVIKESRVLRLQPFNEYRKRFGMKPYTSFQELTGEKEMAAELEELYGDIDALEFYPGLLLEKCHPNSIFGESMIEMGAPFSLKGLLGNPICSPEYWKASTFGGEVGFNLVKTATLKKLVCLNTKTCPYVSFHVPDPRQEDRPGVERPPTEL
Experiment: Inhibition of ovine COX1 using arachidonic acid as substrate at 30 uM preincubated for 10 mins before substrate addition measured after 5 mins by EIA
Quantity: inhibition (%)

>  <Item smiles>
C=CCOc1cccc2c1C(=O)c1c(OCC=C)cc(C)cc1C2=O

>  <Assay value>
44.3

$$$$
>  <Item smiles>
Cc1cc(OCc2ccc(I)cc2)c2c(c1)C(=O)c1cccc(OCc3ccc(I)cc3)c1C2=O

>  <Assay value>
64.2

$$$$
>  <Item smiles>
COCOc1c(C(C)=O)c(C)cc2cccc(O)c12

>  <Assay value>
67.1

$$$$
>  <Item smiles>
CCCCOc1cccc2cc(C)c(C(C)=O)c(O)c12

>  <Assay value>
28.5

$$$$
>  <Item smiles>
COCOc1cccc2cc(C)c(C(C)=O)c(O)c12

>  <Assay value>
80.6

$$$$
>  <Item smiles>
CC(=O)c1c(C)cc2cccc(OCc3cccc(Cl)c3)c2c1O

>  <Assay value>
67.1

$$$$
>  <Item smiles>
CCCCOc1cccc2c1C(=O)c1c(OCCCC)cc(C)cc1C2=O

>  <Assay value>
26

$$$$
>  <Item smiles>
CCOc1c(C(C)=O)c(C)cc2cccc(O)c12

>  <Assay value>
58.4

$$$$
>  <Item smiles>
CCCOc1cccc2cc(C)c(C(C)=O)c(O)c12

>  <Assay value>
53.5

$$$$
>  <Item smiles>
CC(=O)c1c(C)cc2cccc(O)c2c1OCc1cccc(Cl)c1

>  <Assay value>
34.9

$$$$
>  <Item smiles>
CC(=O)c1c(C)cc2cccc(O)c2c1OCc1ccccc1Br

>  <Assay value>
37.2

$$$$
>  <Item smiles>
CC(=O)c1c(C)cc2cccc(O)c2c1OC(C)C

>  <Assay value>
62.2

$$$$
>  <Item smiles>
Cc1cc(O)c2c(c1)C(=O)c1cccc(O)c1C2=O

>  <Assay value>
29.4

$$$$
>  <Item smiles>
CC(=O)c1c(C)cc2cccc(OC(C)C)c2c1O

>  <Assay value>
70.9

$$$$
>  <Item smiles>
Cc1cc(OCc2cccc(Cl)c2)c2c(c1)C(=O)c1cccc(OCc3cccc(Cl)c3)c1C2=O

>  <Assay value>
25.4

$$$$
>  <Item smiles>
CCOc1cccc2c1C(=O)c1c(OCC)cc(C)cc1C2=O

>  <Assay value>
43.7

$$$$
>  <Item smiles>
Cc1cc(OCc2ccccc2)c2c(c1)C(=O)c1cccc(OCc3ccccc3)c1C2=O

>  <Assay value>
41.4

$$$$
>  <Item smiles>
CCCOc1c(C(C)=O)c(C)cc2cccc(O)c12

>  <Assay value>
51.4

$$$$
